# Species: Rattus norvegicus
# experimentalProtocol: Open TG-GATES - Regimen: Daily Repeat
# Type: toxicity, organism-based, Sprague-Dawley
# Parameters: regimen Daily Repeat, gender Male, age 6 weeks
# testSettings: in vivo, po, 0 mg/kg, […], tissue Liver, route gavage, dose level Control, time 14 day
For each of the compounds below, state its LIVER.
Record the result as number plus unit.

compound	result
CCC1(c2ccccc2)C(=O)NC(=O)NC1=O	13.5 g
CC[C@H]1[C@@H]2C[C@H]3[C@@H]4N(C)c5ccccc5[C@]45C[C@@H]([C@@H]2[C@H]5O)N3[C@@H]1O	13.9 g
OCCOCCN1CCN(C(c2ccccc2)c2ccc(Cl)cc2)CC1 (stereo not given) [HYDROXYZINE]	15.4 g
CC1=C(CC(=O)O)c2cc(F)ccc2/C1=C\c1ccc([S+](C)[O-])cc1 (stereo not given)	14.8 g
CCc1oc2ccccc2c1C(=O)c1cc(Br)c(O)c(Br)c1	13.9 g

Hi there! I need LIVER for each item below, if you can.
1. ClC(Cl)(Cl)Cl [CARBON TETRACHLORIDE]
2. O=NN(CCCl)C(=O)NC1CCCCC1
3. CCCCc1oc2ccccc2c1C(=O)c1cc(I)c(OCCN(CC)CC)c(I)c1
4. CN(C)C(=N)N=C(N)N
5. CC(C)N(CCC(C(N)=O)(c1ccccc1)c1ccccn1)C(C)C (stereo not given) [DISOPYRAMIDE]

output:
12.6 g
14.1 g
14.6 g
14.4 g
13.6 g

* * *

For each of the compounds below, state its PL.
# Species on record: Rattus norvegicus
# experimentalProtocol: Open TG-GATES - Regimen: Single
# Assay type: toxicity, organism-based, Sprague-Dawley
# Design: regimen Single, gender Male, age 6 weeks
# testSettings: in vivo, po, 100 mg/kg, 24 h, tissue Plasma, route gavage, dose level Low
Answers are plain numbers, in mg/dL.

compound	measuredNumber
O=NN1CCOCC1 [N-NITROSOMORPHOLINE]	141.4

Hi there! I need PL for each item below, if you can.
1. CCC1(c2ccccc2)C(=O)NC(=O)NC1=O [PHENOBARBITAL]
2. CN(C)C(=N)N=C(N)N [METFORMIN]
3. CN(C)CCC=C1c2ccccc2COc2ccccc21 [DOXEPIN]

output:
132.6
140
155.8

* * *

For each of the molecules below, state its MCHC.
# Organism: Rattus norvegicus
# experimentalProtocol: Open TG-GATES - Regimen: Single
# Format: toxicity, organism-based, Sprague-Dawley
# Parameters: regimen Single, gender Male, age 6 weeks
# testSettings: in vivo, po, 0 mg/kg, 24 h, tissue Blood, route gavage, dose level Control
One number for each entry, in %.

molecule	unitText	MCHC
O=NN(CCCl)C(=O)NC1CCCCC1	%	33.5
CCC1(c2ccccc2)C(=O)NC(=O)NC1=O	%	35.7
CCc1oc2ccccc2c1C(=O)c1cc(Br)c(O)c(Br)c1	%	33.5
OCCOCCN1CCN(C(c2ccccc2)c2ccc(Cl)cc2)CC1 (stereo unspecified) [HYDROXYZINE]	%	32.6
CN(C)C(=N)N=C(N)N	%	33.5
CC[C@H]1[C@@H]2C[C@H]3[C@@H]4N(C)c5ccccc5[C@]45C[C@@H]([C@@H]2[C@H]5O)N3[C@@H]1O	%	33.1
ClC(Cl)(Cl)Cl [CARBON TETRACHLORIDE]	%	35.3
O=NN1CCOCC1	%	32.5

Hi there! I need MCHC for each item below, if you can.
1. CN(C)CCC=C1c2ccccc2COc2ccccc21 [DOXEPIN]
2. CC(C)N(CCC(C(N)=O)(c1ccccc1)c1ccccn1)C(C)C (stereo unspecified) [DISOPYRAMIDE]
3. CC1=C(CC(=O)O)c2cc(F)ccc2/C1=C\c1ccc([S+](C)[O-])cc1 (stereo unspecified)

output:
1: 33.5; 2: 32.3; 3: 32.2
